So I've got a bunch of compounds here, and I need their IC50 values.
molecular target: UniProtKB P46059; experiment: Inhibition of radiolabelled Gly-Sar uptake in DC5 cells overexpressing HPEPT1; assay type: cell-based; design: expressed in transfected cells; host or cells: HeLa cells overexpressing hPEPT1 (called 'HPEPT1 infected cells'); conditions: inhibition of Gly-Sar uptake, DC5 cells overexpressing HPEPT1, 10 min, 37° C.; read-out: DC5 IC50
Sequence (P46059 whole entry): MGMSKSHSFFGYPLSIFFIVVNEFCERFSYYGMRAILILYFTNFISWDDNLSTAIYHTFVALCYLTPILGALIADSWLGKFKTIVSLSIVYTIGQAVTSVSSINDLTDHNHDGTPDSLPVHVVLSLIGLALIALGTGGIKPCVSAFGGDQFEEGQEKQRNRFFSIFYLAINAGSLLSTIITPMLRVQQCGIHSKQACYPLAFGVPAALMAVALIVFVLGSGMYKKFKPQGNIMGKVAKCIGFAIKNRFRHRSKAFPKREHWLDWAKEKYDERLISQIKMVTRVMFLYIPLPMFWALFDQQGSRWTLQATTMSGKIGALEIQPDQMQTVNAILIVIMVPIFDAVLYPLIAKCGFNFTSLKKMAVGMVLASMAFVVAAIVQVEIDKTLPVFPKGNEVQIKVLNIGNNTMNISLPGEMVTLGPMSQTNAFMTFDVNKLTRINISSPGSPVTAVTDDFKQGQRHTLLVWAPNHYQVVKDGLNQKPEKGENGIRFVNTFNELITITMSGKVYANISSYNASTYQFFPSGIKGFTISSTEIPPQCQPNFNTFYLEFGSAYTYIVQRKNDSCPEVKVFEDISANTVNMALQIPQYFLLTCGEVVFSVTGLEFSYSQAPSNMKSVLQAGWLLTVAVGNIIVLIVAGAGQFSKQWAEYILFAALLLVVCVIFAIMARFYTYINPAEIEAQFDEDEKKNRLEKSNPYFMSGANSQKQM

IC50 recorded for this compound, O=C(OCC1OC(n2cc(F)c(=O)[nH]c2=O)CC1O)C1CCCN1 (stereo not shown) [5′-O-prolyl-Floxuridine] , is > 20000 µM

Short answer for Nc1nc2c(ncn2COCCO)c(=O)[nH]1 [Acyclovir, reference compound] : IC50 was > 25000 µM

Reported IC50 of O=C(OC1CC(n2cc(F)c(=O)[nH]c2=O)OC1CO)C1CCCN1 (stereo not shown) [3′-O-prolyl-Floxuridine] : > 20000 µM

So, CC[C@H](C)[C@H](N)C(=O)OC[C@H]1O[C@@H](n2ccc(N)nc2=O)C(F)(F)[C@@H]1O [5′-O-L-isoleucyl gemcitabine] ? Its IC50 was 610 µM

Entry under test: CC(C)[C@H](N)C(=O)OC[C@H]1O[C@@H](n2cc(F)c(=O)[nH]c2=O)C[C@@H]1O [5′-O-valyl-Floxuridine] . Its IC50 was 1170 µM

response.value for CC(C)[C@H](N)C(=O)O[C@H]1C[C@H](n2cc(F)c(=O)[nH]c2=O)O[C@@H]1CO [3′-O-valyl-Floxuridine] (field: IC50) = 980 µM

Lookup result for CC[C@H](C)[C@H](N)C(=O)OC[C@H]1O[C@@H](n2ccc(N)nc2=O)C(F)(F)[C@@H]1OC(=O)[C@@H](N)[C@@H](C)CC [3′,5′-di-O-L-isoleucyl gemcitabine] ; measured IC50: 820 µM

# IC50 (compound: CC[C@H](C)[C@H](N)C(=O)O[C@@H]1[C@@H](CO)O[C@@H](n2ccc(N)nc2=O)C1(F)F [3′-O-L-isoleucyl gemcitabine] ) is 2180 µM

For reference, reported IC50 for Nc1nc(O)c2ncn(COC(CO)CO)c2n1 [Ganciclovir, reference compound] stands at > 20000 µM

IC50 measured on CC(C)[C@H](N)C(=O)O[C@@H]1[C@@H](CO)O[C@@H](n2ccc(N)nc2=O)C1(F)F [3′-O-L-valyl Gemcitabine] = 3690 µM
